target: recombinant trBcl-2L1 (Trichoplax adhaerens Bcl-2-like protein 1), lacking the 33 N-terminal and 29 C-terminal residues (Trichoplax adhaerens); assay: ITC
measured_endpoint: Kd (nM)
Kindly provide the numeric value in nM only, without the unit symbol.

# input Would you kindly share the measured Kd for IEPTSPTIQVARTIRQIGDELDSDPHLN [trBax BH3 peptide] ?
# output 426

# input Would you kindly share the measured Kd for PSSPTSEIGRHLAQLGDSYSVRFQNE [trBak BH3 peptide] ?
# output 1430
